assayed target: GPR18 (Homo sapiens, UniProt Q14330)
Sequence (Q14330 whole entry, species assumed): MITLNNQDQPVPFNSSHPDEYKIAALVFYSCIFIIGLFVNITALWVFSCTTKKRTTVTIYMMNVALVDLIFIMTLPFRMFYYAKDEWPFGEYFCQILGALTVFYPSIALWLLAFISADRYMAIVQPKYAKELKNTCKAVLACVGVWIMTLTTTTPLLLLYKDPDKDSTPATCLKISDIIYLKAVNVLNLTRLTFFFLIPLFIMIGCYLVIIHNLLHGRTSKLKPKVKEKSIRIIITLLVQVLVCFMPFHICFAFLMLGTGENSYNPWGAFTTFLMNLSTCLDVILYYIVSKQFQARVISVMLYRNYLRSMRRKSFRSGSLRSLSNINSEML
method notes: Off-target activity GPR18 (agonist, antagonist, PAM modes)
Assay type: cell-based
pEC50: −log10 of the molar value.
assay metric: pEC50

GPR18 (Homo sapiens, UniProt Q14330) assay, molecule CC(C)(CO)c1cc(NC(=O)N2CCCN2c2ccc(C(F)(F)F)cc2)no1 , recorded pEC50 = < 5.00
